Attribution: patent US20250276989A1

Assay: In vivo plasma levels in mice
Conditions: mouse, plasma; male C57BL/6J mice, 30 mg/kg oral gavage, 2 h post-dose; read-out: Exposure (nM), total exposure in plasma
REPORTED_PROPERTY: concentration at 2 h (nM)
Give the value in nM but do not write nM after it.

Entry COc1ccc(F)c([C@H]2CC[C@H](COc3cccc(C(CP(C)(=O)O)C4CC4)c3)CC2)c1 (single isomer, unassigned) has what concentration at 2 h?
8300

====

Molecular target: human GPR40 (Homo sapiens, UniProt O14842)
Sequence (O14842 whole entry): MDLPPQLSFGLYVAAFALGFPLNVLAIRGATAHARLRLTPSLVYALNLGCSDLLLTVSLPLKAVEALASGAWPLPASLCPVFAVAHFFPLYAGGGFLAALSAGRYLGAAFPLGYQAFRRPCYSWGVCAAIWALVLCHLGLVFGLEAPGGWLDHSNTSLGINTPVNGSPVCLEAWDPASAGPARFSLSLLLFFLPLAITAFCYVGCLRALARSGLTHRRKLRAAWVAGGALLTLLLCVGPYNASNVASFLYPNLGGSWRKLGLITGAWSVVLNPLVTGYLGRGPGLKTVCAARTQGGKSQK
Test: Inositol phosphate accumulation assay (IP1 HTRF) in CHO-K1 cells expressing human GPR40
Conditions: 90 min stimulation
pEC50: −log10 of the molar value.
REPORTED_PROPERTY: pEC50

COMPOUND | TARGET_ENTITY | pEC50
COc1ccc(CCCC(C)(C)C)c(N2CCC(COc3cccc([C@@H](CP(C)(=O)O)C4CC4)c3)CC2)c1 | human GPR40 (Homo sapiens, UniProt O14842) | ≥ 7.30
COc1ccc(F)c([C@H]2CC[C@H](COc3cc([C@@H](CP(C)(=O)O)C4CC4)ccn3)CC2)c1 | human GPR40 (Homo sapiens, UniProt O14842) | ≥ 7.30
COc1ccc(F)c([C@H]2CC[C@H](COc3cccc(C(CP(C)(=O)O)C4CC4)c3)CC2)c1 (single isomer, unassigned) [Compound 7] | human GPR40 (Homo sapiens, UniProt O14842) | ≥ 7.30
COc1ccc(F)c([C@H]2CC[C@H](COc3cccc(C(CP(=O)(O)O)C4CC4)c3)CC2)c1 (stereo partly drawn) | human GPR40 (Homo sapiens, UniProt O14842) | < 6.00
COc1ccc(CCCC(C)(C)C)c(N2CCC(COc3cccc([C@@H](C)CP(C)(=O)O)c3)CC2)c1 | human GPR40 (Homo sapiens, UniProt O14842) | 6.60 to 7.30
CC[C@H](Cc1cccc(OCC2CCN(c3cc(OC)ccc3CCCC(C)(C)C)CC2)c1)P(C)(=O)O | human GPR40 (Homo sapiens, UniProt O14842) | 6.00 to 6.60

Entry `CC[C@@H](Cc1cccc(OCC2CCN(c3cc(OC)ccc3CCCC(C)(C)C)CC2)c1)P(C)(=O)O` has what pEC50?
6.00 to 6.60

Another: `COc1ccc(CCCC(C)(C)C)c(N2CCC(COc3cccc([C@H](C)CP(C)(=O)O)c3)CC2)c1`
≥ 7.30

Another: COc1ccc(F)c([C@H]2CC[C@H](COc3cccc(C(C4CC4)C(C)P(=O)(O)O)c3)CC2)c1 (stereo partly drawn)
< 6.00

====

Test: In vivo plasma levels in mice
Details: mouse, plasma; male C57BL/6J mice, 30 mg/kg oral gavage, 5 h post-dose; read-out: Exposure (nM), total exposure in plasma
REPORTED_PROPERTY: concentration at 5 h

Entry `COc1ccc(F)c([C@H]2CC[C@H](COc3cc([C@@H](CP(C)(=O)O)C4CC4)ccn3)CC2)c1` has what concentration at 5 h?
1160 nM

====

Biological target: human GPR40 (Homo sapiens)
Experiment: Inositol phosphate accumulation assay (IP1 HTRF) in CHO-K1 cells expressing human GPR40
Settings: 90 min stimulation
Parameter: EC50. Scope: all listed entries.

COMPOUND | EC50
COc1ccc(F)c([C@H]2CC[C@H](COc3cccc(C(CP(C)(=O)O)C4CC4)c3)CC2)c1 (single isomer, unassigned) [Compound 6] | 50 to 250 nM
COc1ccc(CCCC(C)(C)C)c(N2CCC(COc3cc([C@@H](C)CP(C)(=O)O)ccn3)CC2)c1 | ≤ 50 nM
COc1ccc(F)c([C@H]2CC[C@H](COc3cccc(C(CP(C)(=O)O)C4CC4)c3)CC2)c1 (single isomer, unassigned) [Compound 8] | 50 to 250 nM
COc1ccc(CCCC(C)(C)C)c(N2CCC(COc3cccc([C@H](C)CP(=O)(O)O)c3)CC2)c1 | 250 to 1000 nM
COc1ccc(CCCC(C)(C)C)c(N2CCC(COc3cccc([C@@H](C)CP(=O)(O)O)c3)CC2)c1 | > 1000 nM

Entry COc1ccc(F)c([C@H]2CC[C@H](COc3cccc(C(CP(=O)(O)OC)C4CC4)c3)CC2)c1 (stereo partly shown) has what EC50?
250 to 1000 nM

Another: `COc1ccc(CCCC(C)(C)C)c(N2CCC(COc3cc([C@H](C)CP(C)(=O)O)ccn3)CC2)c1`
250 to 1000 nM
